Reported Test K disease control rating is given for each of the following compounds.
# System: Puccinia recondita f. sp. tritici
# protocol: Test K: wheat leaf rust, preventive spray on wheat seedlings
# condition info: 200 ppm
experimental endpoint: Test K disease control rating (%)

CCC(C)n1c(-c2c(F)cccc2F)c(Cl)nc(-n2cncn2)c1=O (stereo not shown); 100
CC(C)Cn1c(C(C)(C)C)c(Cl)nc(-n2cncn2)c1=O; 0
CCCn1c(-c2c(F)cccc2F)c(Cl)nc(-n2cccn2)c1=O; 100
CC(C)C(C)n1c(-c2c(F)cccc2F)c(Cl)nc(-n2cccn2)c1=O (stereo not shown); 100
Cc1ccc(-c2c(Cl)nc(-n3cccn3)c(=O)n2CC(C)C)c(C)c1; 100
CC(C)Cn1c(-c2c(F)cccc2F)c(Cl)nc(-c2cnc3ccccn23)c1=O; 0
CC(C)Cn1c(-c2c(F)ccc(F)c2F)c(Cl)nc(-n2cncn2)c1=O; 99
COCCn1c(-c2c(F)cccc2F)c(Cl)nc(-n2cccn2)c1=O; 94
CC(C)Cn1c(-c2c(F)cccc2F)c(Cl)nc(-c2ccnn2C)c1=O; 0
CCC(C)Cn1c(-c2c(F)cc(F)cc2F)c(Cl)nc(-n2cccn2)c1=O (stereo not shown); 100
CC(C)Cn1c(-c2ccc(Cl)cc2Cl)c(Cl)nc(-n2cncn2)c1=O; 91
CC(C)Cn1c(-c2c(F)ccc(F)c2F)c(Cl)nc(-n2cccn2)c1=O; 100
COc1ccccc1-c1c(Cl)nc(-n2cccn2)c(=O)n1CC(C)C; 0
CC(C)(C)CCn1c(-c2c(F)cccc2F)c(Cl)nc(-n2cccn2)c1=O; 85
Cc1ccc(-c2c(Cl)nc(-n3cncn3)c(=O)n2CC(C)C)c(C)c1; 97
CC(c1ccccc1)n1c(-c2c(F)cccc2F)c(Cl)nc(C#N)c1=O (stereo not shown); 0

====

Reported melting point is given for each of the following compounds.
experimental endpoint: melting point

Cc1nc(-n2cccn2)c(=O)n(CC(C)C)c1-c1c(F)cccc1F [Compound 149]; 105 to 106 °C
COc1ccc(Cn2c(-c3c(F)cccc3F)c(Cl)nc(-n3cccn3)c2=O)cc1 [Compound 271]; 235 to 236 °C
CCC(C)Cn1c(-c2ccc(F)cc2F)c(C)nc(C#N)c1=N (centres unmarked) [Compound 426]; 73 to 77 °C
O=c1c(-n2cccn2)nc(Cl)c(-c2c(F)ccc(F)c2F)n1-c1ccccc1 [Compound 357]; 250 to 260 °C
CC[C@H](C)Cn1c(-c2c(F)cc(F)cc2F)c(Cl)nc(-n2cccn2)c1=O [Compound 155]; 112 to 113 °C

====

# Tested on: Colletotrichum orbiculare
# protocol: Test B: cucumber Colletotrichum anthracnose, preventive spray on cucumber seedlings
# condition info: 40 ppm (marked *); 100 = 100% disease control, 0 = no control
Marks after values point to notes of the source that are not given here.
Reported Test B disease control rating is given for each of the following molecules.
experimental endpoint: Test B disease control rating

O=c1c(-n2cccn2)nc(Cl)c(-c2c(F)cc(F)cc2F)n1-c1cccc(C(F)(F)F)c1 [compound 353]; 16* %
O=c1c(-n2cccn2)nc(Cl)c(-c2c(F)cccc2F)n1-c1ccc(F)cc1F [compound 386]; 87* %
Cc1ccn(-c2nc(Cl)c(-c3c(F)cc(F)cc3F)n(-c3cccc(Cl)c3)c2=O)n1 [compound 374]; 100* %
O=c1c(-n2cccn2)nc(Cl)c(-c2c(F)cccc2F)n1-c1ccccc1F [compound 339]; 0* %
Cc1ccn(-c2nc(Cl)c(-c3c(F)cc(F)cc3F)n(-c3ccc(F)cc3)c2=O)n1 [compound 409]; 98* %
O=c1c(-n2cncn2)nc(Cl)c(-c2c(F)cccc2F)n1Cc1cccc(Cl)c1 [compound 276]; 0* %
Cc1cc(C)c(-c2c(Cl)nc(-n3cccn3)c(=O)n2CC(C)C)c(C)c1 [compound 254]; 0* %
Cc1ccn(-c2nc(Cl)c(-c3c(F)cc(F)cc3F)n(-c3ccc(F)c(Cl)c3)c2=O)n1 [compound 407]; 32* %
O=c1c(-n2cccn2)nc(Cl)c(-c2c(F)cc(F)cc2F)n1-c1ccccc1F [compound 320]; 88* %
O=c1c(-n2cccn2)nc(Cl)c(-c2c(F)cc(F)cc2F)n1Cc1ccccc1C(F)(F)F [compound 348]; 0* %
Cc1ccn(-c2nc(Cl)c(-c3c(F)cccc3F)n(Cc3ccccc3F)c2=O)n1 [compound 280]; 57* %
O=c1c(-n2cccn2)nc(Cl)c(-c2c(F)cccc2F)n1-c1cccc(F)c1F [compound 380]; 96* %
Cc1ccn(-c2nc(Cl)c(-c3c(F)cccc3F)n(-c3ccccc3)c2=O)n1 [compound 278]; 88* %
COc1cccc(-n2c(-c3c(F)cccc3F)c(Cl)nc(-n3cccn3)c2=O)c1 [compound 394]; 99* %
CCCn1c(-c2c(F)cc(F)cc2F)c(Cl)nc(C(N)=O)c1=O [compound 413]; 0* %
CCCCn1c(-c2ccc(F)cc2Cl)c(Cl)nc(-n2cccn2)c1=O [compound 266]; 99* %
COc1ccccc1-n1c(-c2c(F)cccc2F)c(Cl)nc(-n2cccn2)c1=O [compound 393]; 41* %
CCCCn1c(-c2ccc(F)cc2Cl)c(Br)nc(-n2cccn2)c1=O [compound 284]; 0* %
O=c1c(-n2cccn2)nc(Cl)c(-c2c(F)cccc2F)n1-c1ccccc1OC(F)(F)F [compound 396]; 13* %
CC(C)Cn1c(-c2c(F)cccc2F)c(Cl)nc(-c2cnccn2)c1=O.Cl [compound 364]; 0* %
Cc1ccn(-c2nc(Cl)c(-c3c(F)cc(F)cc3F)n(-c3cc(F)cc(F)c3)c2=O)n1 [compound 368]; 99* %
O=c1c(-n2cccn2)nc(Cl)c(-c2c(F)cccc2F)n1-c1ccccc1OC(F)(F)F [compound 397]; 37* %
O=c1c(-n2cccn2)nc(Cl)c(-c2c(F)cccc2F)n1CCF [compound 269]; 0* %
O=c1c(-n2cccn2)nc(Cl)c(-c2c(F)cc(F)cc2F)n1-c1ccc(Br)cc1 [compound 352]; 99* %
O=c1c(-n2cccn2)nc(Cl)c(-c2c(F)cc(F)cc2F)n1-c1ccc(Cl)c(Cl)c1 [compound 402]; 98* %
O=c1c(-n2cccn2)nc(Cl)c(-c2c(F)cc(F)cc2F)n1-c1ccc(F)c(Cl)c1 [compound 406]; 84* %
O=c1c(-n2cccn2)nc(Cl)c(-c2c(F)cccc2F)n1Cc1ccccc1F [compound 330]; 0* %
Cc1nc(-c2ccccn2)c(=O)n(-c2ccccc2)c1-c1c(F)cccc1F [compound 359]; 0* %
O=c1c(-n2cncn2)nc(Cl)c(-c2c(F)cccc2F)n1Cc1ccc(F)cc1 [compound 273]; 0* %
CC[C@H](C)Cn1c(-c2ccc(F)cc2Cl)c(Br)nc(N2CCC=N2)c1=O [compound 283]; 94* %
CC(C)Cn1c(-c2cccc(C#N)c2)c(Cl)nc(-n2cccn2)c1=O [compound 250]; 0* %
N#Cc1nc(Cl)c(-c2c(F)cccc2F)n(Cc2cccc(Cl)c2)c1=O [compound 277]; 0* %
CCCCn1c(-c2ccc(F)cc2Cl)c(Cl)nc(N2CCC=N2)c1=O [compound 267]; 0* %

====

# System: Rhizoctonia oryzae
# protocol: Test G: turf brown patch, preventive spray on creeping bent grass seedlings
# condition info: 40 ppm (*)
Marks after values point to notes of the source that are not given here.
experimental endpoint: Test G disease control rating

CC(C)Cn1c(-c2ccc(C(C)(C)C)cc2)c(Cl)nc(-n2cncn2)c1=O [compound 75]; 0* %
N#Cc1nc(Cl)c(-c2c(F)cccc2F)n(Cc2ccc(Cl)cc2)c1=O [compound 220]; 0* %
CC(C)Cn1c(-c2ccccc2Cl)c(Cl)nc(-n2cncn2)c1=O [compound 192]; 31* %
CCC(C)Cn1c(-c2c(F)cccc2F)c(Cl)nc(NN(C)C)c1=O (centres unmarked) [compound 134]; 0* %
N#Cc1nc(Cl)c(-c2c(F)cccc2F)n(-c2ccccc2)c1=O [compound 163]; 0* %

====

# Test system: Septoria tritici
# protocol: Test J: wheat leaf blotch, preventive spray on wheat seedlings
# Type: in vivo
# condition info: 200 ppm
Reported Test J disease control rating is given for each of the following molecules.
experimental endpoint: Test J disease control rating (%)

CC(C)Cn1c(-c2ccccc2C(F)(F)F)c(Cl)nc(-n2cncn2)c1=O; 41
CC(C)Cn1c(C(C)(C)C)c(Cl)nc(-n2cccn2)c1=O; 0
N#Cc1nc(Cl)c(-c2c(F)cccc2F)n(Cc2ccccc2)c1=O; 12
CC(C)(C)CCn1c(-c2c(F)cccc2F)c(Cl)nc(-n2cccn2)c1=O; 100
CC(C)Cn1c(-c2ccc3ccccc3c2)c(Cl)nc(-n2cccn2)c1=O; 0
CC(C)Cn1c(-c2c(F)cc(F)cc2F)c(Cl)nc(-n2cccn2)c1=O; 100
CC(C)Cn1c(-c2ccc(F)cc2)c(Cl)nc(-n2cccn2)c1=O; 100
O=c1c(-n2cccn2)nc(Cl)c(-c2c(F)cccc2F)n1CC1CC1; 100
Cc1cccnc1-c1nc(Cl)c(-c2c(F)cccc2F)n(CC(C)C)c1=O; 1
CCC(C)Cn1c(-c2ccc(F)cc2Cl)c(Cl)nc(-n2cccn2)c1=O (stereo not drawn); 100
CCC(C)Cn1c(-c2c(F)cccc2F)c(Cl)nc(-n2ccnc2)c1=O (stereo not drawn); 40
C=CCn1c(-c2c(F)cccc2F)c(Cl)nc(-n2cccn2)c1=O; 98
CC(C)Cn1c(-c2ccccc2C(F)(F)F)c(Cl)nc(-n2cccn2)c1=O; 99
CC(c1ccccc1)n1c(-c2c(F)cccc2F)c(Cl)nc(-n2cncn2)c1=O (stereo not drawn); 11
C=C(C)Cn1c(-c2c(F)cccc2F)c(Cl)nc(-n2cccn2)c1=O; 100
COCCn1c(-c2c(F)cccc2F)c(Cl)nc(-n2cccn2)c1=O; 95
CC(C)n1c(-c2c(F)cccc2F)c(Cl)nc(-n2cccn2)c1=O; 96
Cc1cccc(C)c1-c1c(Cl)nc(-n2cncn2)c(=O)n1CC(C)C; 100
